- test-system: SIX1-Q177R homeodomain (human, UniProt Q15475 108-198, Q177R)
- Sequence: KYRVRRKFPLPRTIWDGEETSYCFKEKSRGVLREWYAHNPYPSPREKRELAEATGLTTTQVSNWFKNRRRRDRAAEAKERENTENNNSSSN
- test-protocol: universal protein binding microarray; Universal all-10-mer PBM (8x60K, AMADID 030236), 300 nM GST-tagged protein, Alexa Fluor 488 anti-GST; buffer, salt, pH and temperature not stated (as in Berger); high values mean tight binding
- condition-summary: protein: ivt; tags: N-terminal GST; dsDNA, one strand shown
The full ranking holds about 33,000 sequences; the median of “e-score” is about -0.05, and the highest 2% start at about 0.38. The list comes from a sample in which the highest values are over-represented; it also holds close analogues and randomly drawn sequences.
Classify as follows. Reported binding signal greater than or equal to 0.3 E-score: yes (1). Reported binding signal below: no (0).

Check out these entries, answers already filled in.
chain_sequence=AAGGACAC test_system="SIX1-Q177R homeodomain (human, UniProt Q15475 108-198, Q177R)" answer_label="yes (1)"
chain_sequence=GGGTCATA test_system="SIX1-Q177R homeodomain (human, UniProt Q15475 108-198, Q177R)" answer_label="no (0)"
chain_sequence=GAGGACAC test_system="SIX1-Q177R homeodomain (human, UniProt Q15475 108-198, Q177R)" answer_label="yes (1)"
chain_sequence=CACTAGGC test_system="SIX1-Q177R homeodomain (human, UniProt Q15475 108-198, Q177R)" answer_label="no (0)"
chain_sequence=AAGCACAC test_system="SIX1-Q177R homeodomain (human, UniProt Q15475 108-198, Q177R)" answer_label="no (0)"

IN: Is reported binding signal greater than or equal to 0.3 E-score here: `GGGTCGAA`
OUT: no (0)

IN: Subsequent entry: `CATGTGTA`
OUT: no (0)

IN: Subsequent entry: `CCCCAACA`
OUT: no (0)

IN: Subsequent entry: `GAGGTGTA`
OUT: yes (1)

IN: Subsequent entry: `ACTCCGTG`
OUT: no (0)

====

- test-system: SIX1-Q177R homeodomain (human, UniProt Q15475 108-198, Q177R)
- Sequence: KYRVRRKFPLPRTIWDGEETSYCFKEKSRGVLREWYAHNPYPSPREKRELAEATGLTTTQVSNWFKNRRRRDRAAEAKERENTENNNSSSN
- test-protocol: universal protein binding microarray; Universal all-10-mer PBM (8x60K, AMADID 030236), 300 nM GST-tagged protein, Alexa Fluor 488 anti-GST; buffer, salt, pH and temperature not stated (as in Berger); high values mean tight binding
- condition-summary: protein: ivt; tags: N-terminal GST; dsDNA, one strand shown
The full ranking holds about 33,000 sequences; the median of “e-score” is about -0.05, and the highest 2% start at about 0.38. The list comes from a sample in which the highest values are over-represented; it also holds close analogues and randomly drawn sequences.
The label is Satisfied for binding signal below 0.2 E-score and Not satisfied for binding signal equal to or exceeding 0.2 E-score.

Check out these entries, answers already filled in.
chain_sequence=CCCAACAC test_system="SIX1-Q177R homeodomain (human, UniProt Q15475 108-198, Q177R)" answer_label="Not satisfied"
chain_sequence=GCCAACAC test_system="SIX1-Q177R homeodomain (human, UniProt Q15475 108-198, Q177R)" answer_label="Not satisfied"
chain_sequence=CACCCCAA test_system="SIX1-Q177R homeodomain (human, UniProt Q15475 108-198, Q177R)" answer_label="Not satisfied"
chain_sequence=CCAAACAC test_system="SIX1-Q177R homeodomain (human, UniProt Q15475 108-198, Q177R)" answer_label="Not satisfied"
chain_sequence=CGTGTAAG test_system="SIX1-Q177R homeodomain (human, UniProt Q15475 108-198, Q177R)" answer_label="Not satisfied"

IN: binding signal strictly < 0.2 E-score for this sequence? `GTACGCTA`
OUT: Satisfied

IN: Subsequent entry: `AGGGTGTC`
OUT: Not satisfied

IN: Subsequent entry: `CGCACCCG`
OUT: Not satisfied

IN: Subsequent entry: `CACCTTAC`
OUT: Not satisfied

IN: Subsequent entry: `AGGGTGTG`
OUT: Not satisfied

IN: Subsequent entry: `CCGGATCC`
OUT: Not satisfied

IN: Subsequent entry: `TGTAGAAA`
OUT: Not satisfied

IN: Subsequent entry: `GACACCCA`
OUT: Not satisfied

IN: Subsequent entry: `CGCACCCA`
OUT: Satisfied

IN: Subsequent entry: `GCAAACAC`
OUT: Not satisfied

IN: Subsequent entry: `AGGGTAAG`
OUT: Satisfied

IN: Subsequent entry: `GACACCCC`
OUT: Not satisfied

IN: Subsequent entry: `GGAGTAGA`
OUT: Not satisfied

IN: Subsequent entry: `GACCCCCA`
OUT: Not satisfied

IN: Subsequent entry: `ACCAACTC`
OUT: Satisfied

All values here come from paper PMC10668032.
